- ASSAY_NOTES: qHTS assay to identify small molecule agonists of the RXR signaling pathway - cell viability counter screen (AID 1159529);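 note: HEK 293T cells carrying an RXR-alpha UAS beta-lactamase reporter; nearly all actives have a fitted effect of over 50% in size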
- TEST_CONTEXT: RXR-alpha-bla HEK293T viability, CellTiter-Glo, 16 h; series mostly up to 76.8 µM
Records with an inconclusive call do not appear. The source made the active and inactive calls. Calls come from the whole dose curve; as a rule, active = well fitted cell-killing curve with a large enough effect in the repeat runs; inconclusive = weak or mixed curves, or effect the other way; inactive = no such curve, though single readings can be large or run the other way.
Choose the fitting class; nothing outside active, inactive is accepted.

Reference set (2 entries):
1) CC(=O)[O-].CC(=O)[O-].O.O.[Zn+2] :: inactive
2) CSSC :: inactive

Enquiry: Could you kindly confirm the outcome this assay logged for Oc1ccc(Cl)c(Cl)c1 ?
Return: inactive

Enquiry: Could you kindly confirm the outcome this assay logged for CC[C@]1(O)CC[C@H]2[C@@H]3CCC4=CCCC[C@@H]4[C@H]3CC[C@@]21C ?
Return: inactive

Enquiry: Could you kindly confirm the outcome this assay logged for O=[N+]([O-])c1ccc(CCl)cc1 ?
Return: inactive

---

- TEST_TARGET: Cytochrome P450 2D6 (Homo sapiens)
- ASSAY_NOTES: Cytochrome P450 Family 2 Subfamily D Member 6 (CYP2D6) small molecule antagonists: luciferase reporter qHTS assay (AID 1671196); note: nearly all actives have a fitted effect of over 50% in size
- TEST_CONTEXT: P450-Glo CYP2D6 enzyme assay, luciferin luminescence, 1 h; series mostly up to 115 µM
Results filed as inconclusive are left out. The source made the active and inactive calls. Calls follow the shape of the dose curve; as a rule, active = well fitted inhibition curve with a large enough effect in the repeat runs; inconclusive = weak or mixed curves; inactive = no such curve, though single readings can be large or run the other way.
Choose the fitting class; nothing outside label 1 for active, label 0 for inactive is accepted.

Reference set (5 entries):
1. COc1ccc2[nH]cc(CCN(C(C)C)C(C)C)c2c1 :: label 1
2. Nc1ccc(Cl)cc1C(=O)c1ccccc1F :: label 0
3. N#Cc1sc2c(=O)c3ccccc3c(=O)c=2sc1C#N :: label 1
4. CC(C)[C@@H](Nc1ccc(C(F)(F)F)cc1Cl)C(=O)OC(C#N)c1cccc(Oc2ccccc2)c1 (stereo partly specified) :: label 0
5. Clc1ccc(C(c2ccc(Cl)cc2)C(Cl)Cl)cc1 :: label 1

Enquiry: Could you kindly confirm the outcome this assay logged for COc1nc(C)nc(NC(=O)NS(=O)(=O)c2ccccc2Cl)n1 ?
Return: label 0

---

- ASSAY_NOTES: qHTS assay to identify small molecule agonists of H2AX - cell viability counter screen (AID 1224847);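 note: wild-type CHO-K1 cells; top concentration of the series differs between compounds; nearly all actives have a fitted effect of over 30% in size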
- TEST_CONTEXT: CHO-K1 viability, CellTiter-Glo luminescence, 3 h; series mostly up to 154 µM
Results filed as inconclusive are left out. Activity calls are given as the source filed them. Calls follow the shape of the full dose curve.
Choose the fitting class; nothing outside yes (1) = active, no (0) = inactive is accepted.

1) O=C(O)CCCCCCNC1c2ccccc2CCc2ccccc21 :: no (0)
2) O=[N+]([O-])[O-].[Tl+] :: no (0)
3) O=C(CCCCl)c1ccc(F)cc1 :: no (0)

Continue with the next compound.
Enquiry: Could you kindly confirm the outcome this assay logged for BrCC(Br)(Br)Br ?
Return: no (0)

---

- TEST_TARGET: Nuclear receptor subfamily 1 group I member 2 (Homo sapiens) (UniProt O75469)
- ASSAY_NOTES: CYP3A4 induction through human pregnane X receptor (PXR) by small molecules, qHTS assay (AID 1346984); note: nearly all actives have a fitted effect of over 40% in size
- TEST_CONTEXT: DPX-2 HepG2 PXR, CYP3A4-luciferin luminescence, 24 h; series mostly up to 46.1 µM
Inconclusive results are not listed. Calls of active or inactive are those of the source. Calls come from the whole dose curve; as a rule, active = well fitted activation curve with a large enough effect in the repeat runs; inconclusive = weak or mixed curves; inactive = no such curve, though single readings can be large or run the other way.
Choose the fitting class; nothing outside active, inactive is accepted.

Reference set (6 entries):
1. CNC(C)(C)Cc1ccccc1 :: inactive
2. CCN(CC)CCN1C(=O)CN=C(c2ccccc2F)c2cc(Cl)ccc21 :: inactive
3. CN1C(=O)[C@@H](NC(=O)c2cc3ccccc3[nH]2)N=C(c2ccccc2)c2ccccc21 :: inactive
4. COc1ccc(Cc2nccc3cc(OC)c(OC)cc23)cc1OC :: inactive
5. ClC1=C(Cl)[C@]2(Cl)[C@@H]3[C@H]4C[C@H]([C@@H]5O[C@H]45)[C@@H]3[C@@]1(Cl)C2(Cl)Cl :: inactive
6. CC[C@]1(O)CC[C@H]2[C@@H]3CCC4=CCCC[C@@H]4[C@H]3CC[C@@]21C :: inactive

Enquiry: Could you kindly confirm the outcome this assay logged for CC(C)C(Br)C(=O)NC(N)=O (centres undefined) ?
Return: inactive

Enquiry: Could you kindly confirm the outcome this assay logged for CN1CCc2cc(Cl)c(O)cc2[C@H]2c3ccccc3CC[C@@H]21 ?
Return: active

Enquiry: Could you kindly confirm the outcome this assay logged for CC(C)NCC(O)c1ccccc1Cl (centres undefined) ?
Return: inactive
